Origin of values: the supplement of paper PMC13380429

This section presents molecules with their documented morphology score values.
Tested on: Vero E6 infected with SARS-CoV-2
test.method.notes: morphology score (similarity to uninfected cells); higher = more like uninfected cells
condition.notes: 24 h

| molecule | morphology score |
| --- | --- |
| CC(C)Nc1cccnc1N1CCN(C(=O)c2cc3cc(NS(C)(=O)=O)ccc3[nH]2)CC1 [delavirdine] (10 µM) | 0.0195 |
| CCC1(CC)C(=O)NC(=O)N(C)C1=O [metharbital] (10 µM) | 0.221 |
| O=C1C(O)=C([C@H]2CC[C@H](c3ccc(Cl)cc3)CC2)C(=O)c2ccccc21 [atovaquone] (0.833333 µM) | 0.028 |
| Cc1csc(-c2nnc(Nc3ccc(Oc4ncccc4-c4ccnc(N)n4)cc3)c3ccccc23)c1 (0.833333 µM) | 0.202 |

* * *

Test system: Vero E6 infected with SARS-CoV-2
test.method.notes: inhibition of SARS-CoV-2 cytopathic effect; higher = more antiviral protection, active = above 15
condition.notes: 1 nM; 48 h
The following compounds are listed with their measured inhibition of SARS-CoV-2 cytopathic effect values.
assay.metric: inhibition of SARS-CoV-2 cytopathic effect (%)

| compound | target.of.assay | result.units | observed |
| --- | --- | --- | --- |
| O=C(O)c1cc(O)c2c(c1)C(=O)c1cccc(O)c1C2=O | Vero E6 infected with SARS-CoV-2 | % | -0.32 |
| O=C(/C=C/c1ccc2ccccc2n1)c1ccncc1 | Vero E6 infected with SARS-CoV-2 | % | -4.3 |
| O=C(Nc1ccccc1)OCC(CN1CCCCC1)OC(=O)Nc1ccccc1 (stereo not drawn) | Vero E6 infected with SARS-CoV-2 | % | 0.17 |
| CS(=O)(=O)N1CCN(Cc2cc3nc(-c4cccc5[nH]ncc45)nc(N4CCOCC4)c3s2)CC1 | Vero E6 infected with SARS-CoV-2 | % | -1.74 |
| O=C(O)c1cnn(-c2nc3cc(OC(F)(F)F)c(Cl)cc3[nH]2)c1 | Vero E6 infected with SARS-CoV-2 | % | 0.36 |
| CC/C(=C(\c1ccc(O)cc1)c1ccc(OCCN(C)C)cc1)c1ccccc1 | Vero E6 infected with SARS-CoV-2 | % | -2.83 |
| CN(C)CCCCSC(=N)N | Vero E6 infected with SARS-CoV-2 | % | -2.5 |
| CCCN(CC1CC1)c1nc(C)nc(Nc2c(Cl)cc(Cl)cc2Cl)c1Cl | Vero E6 infected with SARS-CoV-2 | % | 4.5 |

* * *

Tested on: Vero E6 infected with SARS-CoV-2
test.method.notes: inhibition of SARS-CoV-2 cytopathic effect; higher = more antiviral protection, active = above 15
condition.notes: 8.33 nM; 48 h
assay.metric: inhibition of SARS-CoV-2 cytopathic effect (%)

| molecule | target.of.assay | result.units | observed |
| --- | --- | --- | --- |
| CCCCCCN(CCCCCC)C(=O)Cc1c(-c2ccc(F)cc2)[nH]c2ccccc12 | Vero E6 infected with SARS-CoV-2 | % | 3.61 |
| CC1(C)CCC(C)(C)c2cc(C3(c4ccc(C(=O)O)cc4)OCCO3)ccc21 | Vero E6 infected with SARS-CoV-2 | % | -2.21 |
| Cc1cc(-c2nc3cc(F)ccc3s2)ccc1NC(=O)[C@@H](N)CCCCN | Vero E6 infected with SARS-CoV-2 | % | -0.88 |
| CC[N+]1(C)CCCC(OC(=O)C(O)(c2ccccc2)c2ccccc2)C1 (stereo not drawn) [pipenzolate] | Vero E6 infected with SARS-CoV-2 | % | -0.02 |
| Cc1ccnc2c1CCCC2C(N)=S (stereo not drawn) [isotiquimide] | Vero E6 infected with SARS-CoV-2 | % | 1.38 |
| CCCn1c(=O)[nH]c(=O)c2nc[nH]c21 | Vero E6 infected with SARS-CoV-2 | % | 0.93 |
| C[C@H]1[C@H](NC(=O)/C(=N\OC(C)(C)C(=O)O)c2csc(N)n2)C(=O)N1S(=O)(=O)O | Vero E6 infected with SARS-CoV-2 | % | 20 |
| O=c1ccc2ccc(OCCCCN3CCN(c4cccc5sccc45)CC3)cc2[nH]1 | Vero E6 infected with SARS-CoV-2 | % | 2.4 |

* * *

A collection of compounds and their measured inhibition of SARS-CoV-2 cytopathic effect
Tested on: Vero E6 infected with SARS-CoV-2
test.method.notes: inhibition of SARS-CoV-2 cytopathic effect; higher = more antiviral protection, active = above 15
condition.notes: 100 nM; 48 h
assay.metric: inhibition of SARS-CoV-2 cytopathic effect (%)

| compound | observed |
| --- | --- |
| CSc1nc(NC2CCCC2)c([N+](=O)[O-])c(NC2CCCC2)n1 | 1.31 |
| Cc1ccc2c(-c3ccccc3)nc(=O)n(C(C)C)c2c1 [proquazone] | -1.31 |
| Cc1cccc(Oc2nc3c(C)cccn3c(=O)c2/C=C(\C#N)c2nc3ccccc3s2)c1 | 0.8 |
| Cc1ccc2c(c1CCC(=O)O)CC[C@@H](NS(=O)(=O)c1ccc(Cl)cc1)C2 [terutroban] | -5.1 |
| CN[C@@H](C)C(=O)N[C@H]1CCCC[C@H]2CC[C@@H](C(=O)N[C@@H](c3ccccc3)c3cn(CCCCc4ccc(CCCCn5cc([C@@H](NC(=O)[C@@H]6CC[C@@H]7CCCC[C@H](NC(=O)[C@H](C)NC)C(=O)N76)c6ccccc6)nn5)cc4)nn3)N2C1=O | -2.09 |
| CC(=O)N(C)c1cccc(-c2ccnc3c(C(=O)c4cccs4)cnn23)c1 [indiplon] | 4.78 |
| CCn1c(-c2nonc2N)nc2cncc(CNC3CCNCC3)c21 | -0.75 |
| N#CN=C(NCCCCCCOc1ccc(Cl)cc1)Nc1ccncc1 | -4.25 |
| CCOC(=O)[C@H](C)C[C@@H](Cc1ccc(-c2ccccc2)cc1)NC(=O)CCC(=O)O [sacubitril] | -1.3 |
| C#C[C@]1(O)CC[C@H]2[C@@H]3CCC4=CC(=O)CC[C@]4(C)[C@H]3CC[C@@]21C [ethisterone] | 2.08 |
| O=C(OCCO)c1ccccc1O [2-hydroxyethyl-salicylate] | -0.09 |
| Cc1c(C(=O)NCCCO)cnn1-c1nc(-c2cccc(C(F)(F)F)c2)cs1 | 3.4 |
| O=C1C=Cc2cc(Br)ccc2C1=O [bonaphthone] | -2.18 |
| COc1ccc(NS(=O)(=O)c2ccc(/N=N/c3ccc(O)c(C(=O)O)c3)cc2)nn1 [salazodine] | 1.53 |
| S=C(NC1CCCCC1)N1CCC(c2cnc[nH]2)CC1 [thioperamide] | -0.03 |
| CO[C@@H]1[C@H](O)[C@@H](CO)O[C@H]1n1cnc2c(NC3CCCCC3)ncnc21 | 8.69 |
| FC(F)(F)c1ccc(CNc2ccc(Cc3c[nH]c4ncc(Cl)cc34)cn2)cn1 [pexidartinib] | 0.98 |
| O=C(O)c1ccccc1Nc1cccc(OCc2ccc3ccccc3n2)c1 | 0.56 |
| CSc1ccc([C@H]2CN3CCC[C@H]3c3ccccc32)cc1 (racemic) | 2.84 |
| CCOP(=S)(OCC)Oc1cc(C)nc(C(C)C)n1 [dimpylate] | 2.07 |
| C[C@@H](N[C@H]1CCCC[C@@H]1NC(=O)c1ccc(Cl)cc1)c1cccc2ccccc12 [Calhex-231] | 1.31 |
| CC[n+]1c(-c2ccccc2)c2cc(N)ccc2c2ccc(N)cc21 [homidium] | 5.98 |
| CC1C(=O)OC2C(O)C34C5CC(C(C)(C)C)C36C(OC(=O)C6O)OC4(C(=O)O5)C12O (stereo not drawn) [ginkgolide-B] | -1.98 |

* * *

System: Vero E6 infected with SARS-CoV-2
test.method.notes: inhibition of SARS-CoV-2 cytopathic effect; higher = more antiviral protection, active = above 15
condition.notes: 10000 nM; 48 h
Some compounds, each annotated with its measured inhibition of SARS-CoV-2 cytopathic effect.
assay.metric: inhibition of SARS-CoV-2 cytopathic effect (%)

| compound | result.units | observed |
| --- | --- | --- |
| Cc1cc(Cn2nnc3c(-c4ccco4)nc(N)nc32)ccc1N | % | 0.65 |
| CC(=O)c1ccc2c(c1)N(CCCN1CCN(CCO)CC1)c1ccccc1S2 | % | 2.15 |
| O=C1C2CC=CCC2C(=O)N1SC(Cl)(Cl)Cl (stereo not given) | % | 7.49 |
| O=c1cc(N2CCOCC2)oc2c(-c3ccccc3)cccc12 | % | -5.7 |
| Fc1cc(F)c2c(c1)[C@H]1C=CC[C@H]1C(c1cccnc1)N2 (stereo not given in full) [Golgicide A] | % | -3.16 |

* * *

Test system: Vero E6 infected with SARS-CoV-2
test.method.notes: inhibition of SARS-CoV-2 cytopathic effect; higher = more antiviral protection, active = above 15
condition.notes: 8.33 nM; 48 h
assay.metric: inhibition of SARS-CoV-2 cytopathic effect (%)

| compound | target.of.assay | result.units | observed |
| --- | --- | --- | --- |
| CC[C@H]1OC(=O)[C@H](C)C(=O)[C@H](C)[C@@H](O[C@@H]2O[C@H](C)C[C@H](N(C)C)[C@H]2O)[C@](C)(OC)C[C@@H](C)C(=O)[C@H](C)[C@H]2N(CCCCn3cnc(-c4cccnc4)c3)C(=O)O[C@]12C | Vero E6 infected with SARS-CoV-2 | % | -0.46 |
| CCOc1ccc(Cc2nccc3cc(OCC)c(OCC)cc23)cc1OCC | Vero E6 infected with SARS-CoV-2 | % | -11.9 |
| O=C(NC1CCC1)c1ccc(C#Cc2cccc(F)c2)nc1 | Vero E6 infected with SARS-CoV-2 | % | -1.61 |
| CN(C(=O)c1c(O)c2ccccc2n(C)c1=O)c1ccccc1 | Vero E6 infected with SARS-CoV-2 | % | 0.29 |
| C[n+]1c2cc(N)ccc2cc2ccc(N)cc21.Nc1ccc2cc3ccc(N)cc3nc2c1 | Vero E6 infected with SARS-CoV-2 | % | 1.62 |
| CC(C)(C)c1cc(C(=O)/C(C#N)=N/Nc2cccc(Cl)c2)no1 | Vero E6 infected with SARS-CoV-2 | % | -1.2 |
| C[C@@H]1C[C@@H]([C@H](O)CC2CC(=O)NC(=O)C2)C(=O)[C@@H](C)C1 [cycloheximide] | Vero E6 infected with SARS-CoV-2 | % | 2.86 |
| NCCNC(=O)c1ccc(Cl)cn1 [lazabemide] | Vero E6 infected with SARS-CoV-2 | % | -0.18 |
| CCN(CC)CCCC(C)Nc1c2ccc(Cl)cc2nc2ccc(OC)cc12 (stereo not drawn) | Vero E6 infected with SARS-CoV-2 | % | 0.39 |
| CN1Cc2ccccc2[C@@H]2c3cccc4[nH]cc(c34)C[C@H]21 | Vero E6 infected with SARS-CoV-2 | % | 0.93 |
| CCOc1cc(N)c(Cl)cc1C(=O)NCC1CN(Cc2ccc(F)cc2)CCO1 (stereo not drawn) [mosapride] | Vero E6 infected with SARS-CoV-2 | % | 2.99 |
| Cc1ncc(CO)c(/C=N/NC(=O)c2ccncc2)c1O [pyridoxal-isonicotinoyl-hydrazone] | Vero E6 infected with SARS-CoV-2 | % | -0.89 |
| C#C[C@]1(O)CC[C@H]2[C@@H]3CCC4=CC(=NO)CC[C@@H]4[C@H]3CC[C@@]21CC (mixture of isomers) | Vero E6 infected with SARS-CoV-2 | % | -1.06 |
| FC(F)(F)c1cccc(C2=CCN(CCc3ccc4ccccc4c3)CC2)c1 | Vero E6 infected with SARS-CoV-2 | % | -1.4 |
| C=CCNC(=O)c1cc([N+](=O)[O-])cc2c(=O)[nH]c(Nc3ccc(Cl)c(Cl)c3)nc12 | Vero E6 infected with SARS-CoV-2 | % | 4.08 |
| CC(C)(O)CNc1nc(Nc2ccnc(C(F)(F)F)c2)nc(-c2cccc(C(F)(F)F)n2)n1 | Vero E6 infected with SARS-CoV-2 | % | -0.28 |
| Fc1ccc(CNc2ncnc3ccc(F)cc23)cc1 | Vero E6 infected with SARS-CoV-2 | % | -0.71 |
| CNCCC(Oc1ccccc1OC)c1ccccc1 (stereo not drawn) | Vero E6 infected with SARS-CoV-2 | % | 0.21 |
| COc1cc2ncc(-c3ccccc3)nc2cc1OC | Vero E6 infected with SARS-CoV-2 | % | 0.53 |
| COc1ccc2[nH]cc(CCNC(C)=O)c2c1 | Vero E6 infected with SARS-CoV-2 | % | 0.84 |
| N[C@@H](C(=O)O)[C@@H](OCc1ccccc1)C(=O)O.N[C@H](C(=O)O)[C@H](OCc1ccccc1)C(=O)O | Vero E6 infected with SARS-CoV-2 | % | 0.96 |
| Nc1ccc(S(N)(=O)=O)cc1 [sulfanilamide] | Vero E6 infected with SARS-CoV-2 | % | -0.69 |
| Clc1ccc2nsnc2c1NC1=NCCN1 | Vero E6 infected with SARS-CoV-2 | % | 4.56 |
